target: Stat3:3 (Mus musculus); construct: endogenous in cells; experiment: STATs DNA-binding activity in vitro, EMSA with hSIE probe; conditions: Table 4; read-out: IC50 values for the inhibition of STATs DNA-binding activity in vitro, Stat3:3
Sequence (P42227 2-770 limits assumed): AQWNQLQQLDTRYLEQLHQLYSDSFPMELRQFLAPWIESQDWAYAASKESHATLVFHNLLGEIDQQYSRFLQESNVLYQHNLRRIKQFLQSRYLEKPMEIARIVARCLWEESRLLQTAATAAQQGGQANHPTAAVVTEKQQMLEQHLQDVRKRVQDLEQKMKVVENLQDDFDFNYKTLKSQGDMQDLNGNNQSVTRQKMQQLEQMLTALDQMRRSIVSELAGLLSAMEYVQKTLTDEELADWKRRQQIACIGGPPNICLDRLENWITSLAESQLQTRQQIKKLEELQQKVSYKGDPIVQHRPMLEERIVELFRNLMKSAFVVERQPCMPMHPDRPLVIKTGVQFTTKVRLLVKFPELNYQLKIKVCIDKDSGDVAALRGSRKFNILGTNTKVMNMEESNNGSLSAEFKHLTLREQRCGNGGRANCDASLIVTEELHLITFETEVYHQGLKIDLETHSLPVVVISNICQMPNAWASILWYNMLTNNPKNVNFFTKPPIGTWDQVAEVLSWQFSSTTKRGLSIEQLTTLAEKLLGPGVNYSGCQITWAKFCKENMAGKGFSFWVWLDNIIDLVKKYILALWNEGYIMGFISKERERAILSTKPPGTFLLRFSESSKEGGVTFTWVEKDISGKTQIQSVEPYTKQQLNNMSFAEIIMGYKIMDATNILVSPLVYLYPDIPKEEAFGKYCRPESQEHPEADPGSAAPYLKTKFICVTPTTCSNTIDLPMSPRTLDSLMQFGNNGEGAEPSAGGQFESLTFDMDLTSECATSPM
metric: pIC50
FYI, pIC50 means -log10 of a concentration in mol per litre.

                               input_smiles  metric  assay_result
0  O=C(O)c1cc(N=C2C=CC(=C(c3ccccc3)c3ccc(Nc4ccc(Cl)c(C(=O)O)c4)cc3)C=C2)ccc1Cl   pIC50          3.69
1  Cc1cc(N=Nc2ccc(-c3ccc(N=Nc4ccc(O)c(C(=O)O)c4)cc3)cc2)c(N)c(N=Nc2cc(C(=O)O)ccc2Cl)c1N.[Na+]   pIC50          3.80

Would you kindly look at the next entry?
GET /value?item= `O=C1c2ccccc2-c2ccc(N(Cc3ccc([N+](=O)[O-])cc3)Cc3ccc([N+](=O)[O-])cc3)cc21` &field=pIC50 returns 3.61

====

target: Stat3:3 (Mus musculus); construct: endogenous in cells; assay: STATs DNA-binding activity in vitro, EMSA with hSIE probe; details: Table 4; read-out: IC50 values for the inhibition of STATs DNA-binding activity in vitro, Stat3:3
Simple rule here: IC50 less than 200 µM is Criterion met, otherwise Criterion not met.

Take a look at these entries with their results.
>>> df
                                   compound           tested_target       answer_label
0  CC(=O)NNc1nc(C)c(C(/C=C/c2cccc([N+](=O)[O-])c2)=N/NC(=S)NN)s1 [NSC 647608]  Stat3:3 (Mus musculus)  Criterion not met
1  O=C1C=C(Nc2ccc(S(=O)(=O)Nc3ccccn3)cc2)C(=O)C=C1Nc1ccc(S(=O)(=O)Nc2ccccn2)cc1 [NSC 11421]  Stat3:3 (Mus musculus)      Criterion met
2  O=C(/C=C/c1ccccc1)NC(=S)Nc1ccc(C(=O)O)cc1 [NSC 205965]  Stat3:3 (Mus musculus)  Criterion not met

(Q) Bench note: check whether CCOc1cccc2c(NCCCCCCCCNc3c4ccccc4nc4c(OCC)cccc34)c3ccccc3nc12 [NSC 263435] shows IC50 below 200 µM
(A) Criterion met

(Q) Bench note: check whether CCCCCCCCCCCC(=O)NC(=S)Nc1ccc(C(=O)O)cc1 [NSC 216360] shows IC50 below 200 µM
(A) Criterion not met

(Q) Bench note: check whether C=CC1=C(C)/C(=C/c2[nH]c(Cc3[nH]c(/C=C4\NC(=O)C(C)=C4C=C)c(C)c3CCC(=O)O)c(CCC(=O)O)c2C)NC1=O [NSC 26685] shows IC50 below 200 µM
(A) Criterion met

(Q) Bench note: check whether O=C(OC1COC(n2c(=O)oc3cc([N+](=O)[O-])ccc32)C(OC(=O)c2ccccc2)C1OC(=O)c1ccccc1)c1ccccc1 (stereo not shown) [NSC 87849] shows IC50 below 200 µM
(A) Criterion not met

====

biological target: Stat1:3 (Mus musculus); construct: endogenous in cells; experiment: STATs DNA-binding activity in vitro, EMSA with hSIE probe; settings: Table 4; read-out: IC50 values for the inhibition of STATs DNA-binding activity in vitro, Stat1:3
Sequence (P42227 2-770 limits assumed): as above
Quick reference for IC50 among some compounds
Record the result as a number with its unit.

In [3]: df
Out[3]:
                               input_smiles  assay_result
0  CCOc1cccc2c(NCCCCCCCCNc3c4ccccc4nc4c(OCC)cccc34)c3ccccc3nc12         40 µM

The value of IC50 recorded for `C=CC1=C(C)/C(=C/c2[nH]c(Cc3[nH]c(/C=C4\NC(=O)C(C)=C4C=C)c(C)c3CCC(=O)O)c(CCC(=O)O)c2C)NC1=O` when tested on Stat1:3 (Mus musculus) reads 68 µM

The value of IC50 recorded for `O=C(/C=C/c1ccccc1)NC(=S)Nc1ccc(C(=O)O)cc1` when tested on Stat1:3 (Mus musculus) reads 256 µM

The value of IC50 recorded for `CC(CCC(=O)O)(c1ccc(OC(=O)Nc2ccccc2Cl)cc1)c1ccc(OC(=O)Nc2ccccc2Cl)cc1` when tested on Stat1:3 (Mus musculus) reads 300 µM

====

Quick reference for melting point among some compounds

Observe how each entry below is paired with its result.
                                   compound         metric   assay_result
0  O=C(CC(CNS(=O)(=O)c1ccc(Oc2ccccc2)cc1)c1ccc2ccccc2c1)Nc1ccc(C(=O)O)cc1 (centres unmarked) [Compound 61]  melting point  183 to 184 °C
1  O=C(CC(CNS(=O)(=O)c1ccc(Oc2ccccc2)cc1)c1ccccc1)Nc1ccc(C(=O)O)cc1 (centres unmarked) [Compound 60]  melting point  187 to 189 °C
2  CCOC(=O)c1ccc(NC(=O)CC(CNS(=O)(=O)c2ccc(C)cc2)c2ccc(Cl)cc2)cc1 (centres unmarked) [Compound 38]  melting point  187 to 189 °C

GET /value?item= CCOC(=O)c1ccc(NC(=O)CCc2ccccc2)cc1 [Compound 70, Ethyl 4-(3-phenylpropanamido)benzoate] &field=melting point returns 109 to 111 °C

GET /value?item= CCOC(=O)c1ccc(NC(=O)CC(CNS(=O)(=O)c2ccc(Oc3ccccc3)cc2)c2ccccc2)cc1 (centres unmarked) [Compound 56] &field=melting point returns 147 to 149 °C

GET /value?item= O=C(CC(CNS(=O)(=O)c1ccc(Oc2ccccc2)cc1)c1ccc2ccccc2c1)Nc1ccc(C(=O)O)c(O)c1 (centres unmarked) [Compound 65] &field=melting point returns 153 to 155 °C

GET /value?item= CCOC(=O)c1ccc(NC(=O)CC(CNS(=O)(=O)c2ccc(Oc3ccccc3)cc2)c2ccc3ccccc3c2)cc1 (centres unmarked) [Compound 58] &field=melting point returns 141 to 143 °C

GET /value?item= O=C(CCc1ccc2ccccc2c1)Nc1ccc(C(=O)O)cc1 [Compound 71] &field=melting point returns 255 to 257 °C

====

Quick reference for pIC50 among some molecules
biological target: STAT3 (Mus musculus, UniProt P42227); experiment: Inhibition of STAT3 dimerization, EMSA assay; format: binding; design: nuclear extracts were pre-incubated with compound for 30 minutes at room temperature prior to incubation with the radiolabeled probe; endogenous in cells; host or cells: nuclear extracts per the general EMSA method
Sequence (P42227 2-770 limits assumed): as above
pIC50: −log10 of the molar value.

Observe how each entry below is paired with its result.
                                   molecule                         tested_target  assay_result
0  O=C(COS(=O)(=O)c1ccc(-c2ccccc2)cc1)Nc1ccc(C(=O)O)c(O)c1 [Compound 19]  STAT3 (Mus musculus, UniProt P42227)        < 3.30
1  CCOC(=O)c1ccc(NC(=O)CC(CNS(=O)(=O)c2ccc(Oc3ccccc3)cc2)c2ccc(Cl)cc2)cc1 (stereo not drawn) [Compound 37]  STAT3 (Mus musculus, UniProt P42227)        < 3.30

GET /value?item= O=C(CNS(=O)(=O)c1ccc(-c2ccccc2)cc1)Nc1ccc(C(=O)O)c(O)c1 [Compound 21] &field=pIC50 returns < 3.30

====

Quick reference for IC50 among some compounds
molecular target: Stat5:5; assay: STATs DNA-binding activity in vitro, EMSA with MGFe probe; parameters: species or system mouse; conditions: Table 4; read-out: IC50 values for the inhibition of STATs DNA-binding activity in vitro, Stat5:5

Observe how each entry below is paired with its result.
In [3]: df
Out[3]:
                                   compound  assay_result
0  O=C(OC1COC(n2c(=O)oc3cc([N+](=O)[O-])ccc32)C(OC(=O)c2ccccc2)C1OC(=O)c1ccccc1)c1ccccc1 (stereo not shown)      > 300 µM
1   CCCCCCCCCCCC(=O)NC(=S)Nc1ccc(C(=O)O)cc1      > 300 µM
2     O=C(Nc1cccc(NC(=O)C(=O)O)c1)Oc1ccccc1        285 µM
3  CC(C)NC(=O)c1cc(NC(=O)c2ccc(C(=O)Nc3cc(C(=O)NC(C)C)cc(C4=NCCN4)c3)cc2)cc(C2=NCCN2)c1        288 µM
4  CC(CCC(=O)O)(c1ccc(OC(=O)Nc2ccccc2Cl)cc1)c1ccc(OC(=O)Nc2ccccc2Cl)cc1      > 300 µM

The value of IC50 recorded for `Cc1cc(N=Nc2ccc(-c3ccc(N=Nc4ccc(O)c(C(=O)O)c4)cc3)cc2)c(N)c(N=Nc2cc(C(=O)O)ccc2Cl)c1N.[Na+]` when tested on Stat5:5 reads > 300 µM

The value of IC50 recorded for `CC(=O)NNc1nc(C)c(C(/C=C/c2cccc([N+](=O)[O-])c2)=N/NC(=S)NN)s1` when tested on Stat5:5 reads > 300 µM
